- ASSAY_SYSTEM: Androgen receptor (Homo sapiens)
- ASSAY_REMARKS: In vivo inhibition of AR in castrated CB17 mouse xenografted with human VCaP cells at 10 mg/kg, po via gavage measured after 16 hrs by ELISA relative to control
PROPERTY_MEASURED: inhibition

Assign inhibition to the following record: CC1(C)[C@H](NC(=O)c2ccc(CCN3CCN(c4ccc5c(c4)C(=O)N(C4CCC(=O)NC4=O)C5=O)CC3)cc2)C(C)(C)[C@H]1Oc1ccc(C#N)c(Cl)c1 (stereo partly specified) > 50%

Hello, please tell me recorded inhibition for this one: CC1(C)[C@H](NC(=O)c2ccc(N3CCC(CN4CCN(c5cc6c(cc5F)C(=O)N(C5CCC(=O)NC5=O)C6=O)CC4)CC3)c(F)c2)C(C)(C)[C@H]1Oc1ccc(C#N)c(Cl)c1 (stereo partly specified) > 50%

Indicate the recorded inhibition value for this molecule: CC1(C)[C@H](NC(=O)c2ccc(N3CCN(CCCOc4ccc5c(c4)C(=O)N(C4CCC(=O)NC4=O)C5=O)CC3)cc2)C(C)(C)[C@H]1Oc1ccc(C#N)c(Cl)c1 (stereo partly specified) > 50%

Hello, please tell me recorded inhibition for this one: CC(C)N(CC1CCN(c2ccc(C(=O)N[C@H]3C(C)(C)[C@H](Oc4ccc(C#N)c(Cl)c4)C3(C)C)cc2)CC1)[C@H]1C[C@H](Oc2ccc3c(c2)C(=O)N(C2CCC(=O)NC2=O)C3=O)C1 (stereo partly specified) > 50%

Supply measured inhibition of CC1(C)[C@H](NC(=O)c2cc(F)c(CCOCCCN3CCN(c4ccc5c(c4)C(=O)N(C4CCC(=O)NC4=O)C5=O)CC3)c(F)c2)C(C)(C)[C@H]1Oc1ccc(C#N)c(Cl)c1 (stereo partly specified) in your reply. < 50%

New cases:
Hello, please tell me recorded inhibition for this one: CC1(C)[C@H](NC(=O)c2ccc(N3CCC(CN4CCN(c5ccc6c(c5)C(=O)N(C5CCC(=O)NC5=O)C6=O)CC4)CC3)nn2)C(C)(C)[C@H]1Oc1ccc(C#N)c(Cl)c1 (stereo partly specified) < 50%

For the molecule CC1(C)[C@H](NC(=O)c2ccc(N3CCC(CN4CCN(c5cc6c(cc5F)C(=O)N(C5CCC(=O)NC5=O)C6=O)CC4)CC3)nn2)C(C)(C)[C@H]1Oc1ccc(C#N)c(Cl)c1 (stereo partly specified) , give its reported inhibition. > 50%

Identify measured inhibition corresponding to CC1(C)[C@H](NC(=O)c2ccc(N3CCN(CCCCCOc4ccc5c(c4)C(=O)N(C4CCC(=O)NC4=O)C5=O)CC3)nc2)C(C)(C)[C@H]1Oc1ccc(C#N)c(C#N)c1 (stereo partly specified) > 50%

Quickly give me recorded inhibition for CC1(C)[C@H](NC(=O)c2ccc(N3CCN(CCCCCOc4ccc5c(c4)C(=O)N([C@H]4CCC(=O)NC4=O)C5=O)CC3)nc2)C(C)(C)[C@H]1Oc1ccc(C#N)c(Cl)c1 > 50%

Determine its reported inhibition: CC1(C)[C@H](NC(=O)c2cnc(N3CCN(CCCOc4ccc5c(c4)C(=O)N(C4CCC(=O)NC4=O)C5=O)CC3)cn2)C(C)(C)[C@H]1Oc1ccc(C#N)c(Cl)c1 (stereo partly specified) > 50%

Provide inhibition value for the following molecule: CC1(C)[C@H](NC(=O)c2ccc(N3CCC(CN4CCN(c5ccc6c(c5F)C(=O)N(C5CCC(=O)NC5=O)C6=O)CC4)CC3)cc2)C(C)(C)[C@H]1Oc1ccc(C#N)c(Cl)c1 (stereo partly specified) > 50%

Data credit: ChEMBL document CHEMBL4706719
